System: P12-Ichikawa
experiment.summary: cell viability relative to DMSO control; higher = less cytotoxic
run.parameters: RPMI 5 mM glucose + 10% FBS; 48 h; 46.1 µM
Recorded measurements of cell viability, one per entry
observed.property: cell viability (%)

# compound, observed.property, assay.value
measured = [
    ("CO[C@H]1C[C@@H]2CC[C@@H](C)[C@@](O)(O2)C(=O)C(=O)N2CCCC[C@H]2C(=O)O[C@H]([C@H](C)C[C@@H]2CC[C@@H](OP(C)(C)=O)[C@H](OC)C2)CC(=O)[C@H](C)/C=C(\\C)[C@@H](O)[C@@H](OC)C(=O)[C@H](C)C[C@H](C)/C=C/C=C/C=C/1C", "cell viability", 81.4),
    ("C[C@@H](c1ncncc1F)[C@](O)(Cn1cncn1)c1ccc(F)cc1F", "cell viability", 92.6),
    ("Fc1ccc(C(c2ccc(F)cc2)N2CCN(C/C=C/c3ccccc3)CC2)cc1", "cell viability", 104),
    ("NC1CCC(N[C@@H]2C[C@H]2c2ccccc2)CC1 (stereo not given in full)", "cell viability", 91.2),
    ("Clc1ccc(C2(c3ccc(-c4cn[nH]c4)cc3)CCNCC2)cc1", "cell viability", 44.1),
    ("CN1C(=O)\\C(=C/C(=C1/NC2=C(F)C=C(I)C=C2)C(=O)NOCCO)C", "cell viability", 81.1),
    ("Cc1ccc(-n2nc(C(C)(C)C)cc2NC(=O)Nc2ccc(OCCN3CCOCC3)c3ccccc23)cc1", "cell viability", 85.2),
    ("COC[C@H](NC(=O)c1cnc(C)s1)C(=O)N[C@@H](COC)C(=O)N[C@@H](Cc1ccccc1)C(=O)[C@@]1(C)CO1", "cell viability", 1.83),
    ("COc1cc2ncnc(-n3nc(-c4ccccn4)nc3N)c2cc1OC", "cell viability", 0.293),
    ("CC(C)C[C@H](CN)CC(=O)O", "cell viability", 95.6),
]

###

Test system: SEM cells
experiment.summary: cell viability relative to DMSO control; higher = less cytotoxic
run.parameters: RPMI 5 mM glucose + 10% dialyzed FBS; 48 h; 0.19 µM

# compound, units.symbol, cell viability
rows = [
    ("CC1SC/2=C(C(O)=O)/C(=O)C3=CC(=C(C=C3N12)N4CCN(CC4)C\\C5=C(C)\\OC(=O)O5)F (centres undefined)", "%", 102),
    ("O=C/1\\C=C(/OC(=C1)/C2=C3SC4=C(SC3=CC=C2)C=CC=C4)N5CCOCC5", "%", 99.1),
    ("Clc1cccc(-c2nnnn2Cc2cccnc2)c1Cl", "%", 99.4),
    ("C=C(C)[C@@H]1CC[C@]2(C)CC[C@]3(C)[C@H](CC[C@@H]4[C@@]5(C)CC[C@H](O)C(C)(C)[C@@H]5CC[C@]43C)[C@@H]12", "%", 108),
]

###

Test system: P12-Ichikawa
experiment.summary: cell viability relative to DMSO control; higher = less cytotoxic
run.parameters: HPLM + 10% dialyzed FBS; 48 h; 0.00702 µM
Recorded measurements of cell viability, one per entry
observed.property: cell viability (%)

# molecule, units.symbol, assay.value
records = [
    ("CN1CCCN(C(=O)c2cccc(-c3ccc(/C=C4/C(=O)Nc5ccc(Cl)cc54)o3)c2)CC1", "%", 114),
    ("CCNC(=O)C[C@@H]1\\N=C(C2=CC=C(Cl)C=C2)/C3=C(C=CC(=C3)OC)[N]4C(=NN=C14)C", "%", 106),
    ("FC(F)(F)c1ccc(Nc2nc3cc(Oc4ccnc(-c5ncc(C(F)(F)F)[nH]5)c4)ccc3[nH]2)cc1", "%", 115),
    ("CNC(=O)[C@H](Cc1ccccc1)NC(=O)[C@H](CC(C)C)[C@H](CSc1cccs1)C(=O)NO", "%", 86.3),
    ("O=C1\\C=C(/OC2=C1C=CC=C2C3=CC=CC=C3)N4CCOCC4", "%", 95.2),
    ("COc1cc2c(N3CCN(C(=O)Nc4ccc(OC(C)C)cc4)CC3)ncnc2cc1OCCCN1CCCCC1", "%", 87.4),
    ("O=C(NC1CCNCC1)c1n[nH]cc1NC(=O)c1c(Cl)cccc1Cl", "%", 117),
    ("CC(C)(C)OC(=O)CN(Cc1ccc(Cl)cc1)Cc1ccc([N+](=O)[O-])s1", "%", 107),
]

###

Tested on: SEM cells
experiment.summary: cell viability relative to DMSO control; higher = less cytotoxic
run.parameters: HPLM + 10% dialyzed FBS; 48 h; 0.19 µM
observed.property: cell viability (%)

# molecule, units.symbol, assay.value
measured = [
    ("CN[C@H](CC(C)C)C(=O)N[C@H]1C(=O)N[C@@H](CC(N)=O)C(=O)N[C@H]2C(=O)N[C@H]3C(=O)N[C@H](C(=O)N[C@H](C(=O)O)c4cc(O)cc(O)c4-c4cc3ccc4O)[C@H](O)c3ccc(c(Cl)c3)Oc3cc2cc(c3O[C@@H]2O[C@H](CO)[C@@H](O)[C@H](O)[C@H]2O[C@H]2C[C@](C)(N)[C@H](O)[C@H](C)O2)Oc2ccc(cc2Cl)[C@H]1O", "%", 111),
    ("CSC1=CC(=CC=C1)NC2=NC3=C(C=N2)/C=C(C(=O)N3C)/C4=C(Cl)C=CC=C4Cl", "%", 89.7),
    ("Cc1ccc(-n2nc(C(C)(C)C)cc2NC(=O)Nc2ccc(OCCN3CCOCC3)c3ccccc23)cc1", "%", 100),
]

###

Test system: SEM cells
experiment.summary: cell viability relative to DMSO control; higher = less cytotoxic
run.parameters: RPMI 5 mM glucose + 10% FBS; 48 h; 0.00234 µM

# compound, target.system, units.symbol, cell viability
data = [
    ("CNC(=O)[C@H](Cc1ccccc1)NC(=O)[C@H](CC(C)C)[C@H](CSc1cccs1)C(=O)NO", "SEM cells", "%", 75.4),
    ("CN(C)Cc1ccc(-c2nc3cccc4c3n2CCNC4=O)cc1", "SEM cells", "%", 106),
    ("CC(=O)N1CCN(c2ccc(OCc3nn(C)c(C)c3-c3cccc4c(CCCOc5cc(C)c(Cl)c(C)c5)c(C(=O)O)n(Cc5cccnc5)c34)cc2)CC1", "SEM cells", "%", 84.3),
    ("COc1cc2nccc(Oc3ccc(NC(=O)C4(C(=O)Nc5ccc(F)cc5)CC4)cc3)c2cc1OC", "SEM cells", "%", 89.2),
    ("CC[C@H]1OC(=O)[C@H](C)[C@@H](O[C@H]2C[C@@](C)(OC)[C@@H](O)[C@H](C)O2)[C@H](C)[C@@H](O[C@@H]2O[C@@H](C)C[C@H](N(C)C)[C@H]2O)[C@](C)(O)C[C@@H](C)C(=O)[C@H](C)[C@@H](O)[C@]1(C)O", "SEM cells", "%", 94.3),
    ("O=C([O-])Cc1ccccc1Nc1c(Cl)cccc1Cl", "SEM cells", "%", 113),
    ("C[N]1C=NC=C1[C@@](N)(C2=CC=C(Cl)C=C2)C3=CC=C4N(C)C(=O)\\C=C(\\C5=CC=CC(=C5)Cl)C4=C3", "SEM cells", "%", 116),
    ("CCC[C@@H]1C[C@@H](C(=O)N[C@@H]([C@H]2O[C@H](SC)[C@H](O)[C@@H](O)[C@H]2O)[C@@H](C)O)N(C)C1.Cl", "SEM cells", "%", 114),
    ("C1Cc2[nH]nc(-c3nn[nH]n3)c2C1", "SEM cells", "%", 122),
    ("CN(C)CCN(C)CCc1ccc(Cl)c(Cl)c1", "SEM cells", "%", 101),
    ("CN1C(=O)\\C(=C/C(=C1/NC2=C(F)C=C(I)C=C2)C(=O)NOCCO)C", "SEM cells", "%", 102),
    ("Cc1ccc(C(C)(O)c2nc3ccccc3s2)c(C)c1 (centres undefined)", "SEM cells", "%", 110),
    ("Fc1cc(-c2cccc3ncc(-c4cnn(C5CCNCC5)c4)nc23)cc(F)c1CN1CCOCC1", "SEM cells", "%", 113),
    ("CSC1=CC(=CC=C1)NC2=NC3=C(C=N2)/C=C(C(=O)N3C)/C4=C(Cl)C=CC=C4Cl", "SEM cells", "%", 110),
    ("O=C1Nc2ccccc2/C1=C1\\Nc2ccccc2C1=O", "SEM cells", "%", 87.4),
    ("O=C1CSC(=O)N1C(CCc1ccncc1)COc1ccc(-c2cccc([N+](=O)[O-])c2)cc1 (centres undefined)", "SEM cells", "%", 118),
    ("CN(C)CCOC(c1ccccc1)c1ccccc1", "SEM cells", "%", 107),
    ("COc1cc(N2CCC(C(N)=O)CC2)ccc1Nc1nc(N)c(Cl)c(Nc2ccccc2[S+](=O)([O-])C(C)C)n1", "SEM cells", "%", 109),
    ("O=C(O)[C@H](Cc1c[nH]c2ccccc12)N1C(=O)c2ccccc2C1=O", "SEM cells", "%", 52.9),
]
